- System: adult S. mansoni parasites
- METHOD DESCRIPTION: adult worm movement assay ex vivo
- Parameters: species or system Schistosoma mansoni
- DETAILS: Schistosoma mansoni, read-out: IC50 for inhibition of 5-HT evoked movement; 5-HT 200 µM, ex vivo, ± 95% confidence interval
Below, each entry is listed with its recorded pIC50.
Keep in mind that pIC50 stands for -log10 of concentration in molar terms.

INSERT INTO results (smiles, value_observed) VALUES
  ('CCN(CC)C(=O)[C@@H]1C=C2c3cccc4[nH]c(Br)c(c34)C[C@H]2N(C)C1', 7.54);

Query compound follows.
## Task I am curious: what pIC50 value has been reported for CC(C)C[C@H]1C(=O)N2CCC[C@H]2[C@]2(O)O[C@](NC(=O)[C@@H]3C=C4c5cccc6[nH]c(Br)c(c56)C[C@H]4N(C)C3)(C(C)C)C(=O)N12 ?
## Result 6.48
